// provenance: ChEMBL document CHEMBL1154295

- assayed_target: 3-keto-steroid reductase/17-beta-hydroxysteroid dehydrogenase 7 (Homo sapiens) (UniProt P56937)
- Sequence (P56937 whole entry): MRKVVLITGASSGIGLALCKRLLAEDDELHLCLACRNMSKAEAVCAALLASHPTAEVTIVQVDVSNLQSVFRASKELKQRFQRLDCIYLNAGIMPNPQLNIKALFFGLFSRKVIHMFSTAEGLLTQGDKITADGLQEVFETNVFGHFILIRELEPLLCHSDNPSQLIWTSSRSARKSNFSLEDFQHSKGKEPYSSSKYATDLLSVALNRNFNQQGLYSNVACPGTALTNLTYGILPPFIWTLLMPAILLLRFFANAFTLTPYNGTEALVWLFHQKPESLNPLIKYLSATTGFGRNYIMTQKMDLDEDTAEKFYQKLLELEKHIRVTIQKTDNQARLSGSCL
- cond: HEK293, at 0.3 µM
- Description: Inhibition of human 17beta-HSD7 expressed in HEK293 cells assessed as inhibition of reduction of [14C]estrone into [14C]estradiol at 0.3 uM after 7 hrs
property_measured: inhibition (%)
A number alone suffices; assume %.

What measured inhibition goes with CC1(C)CC[C@@]2(CC[C@H]3[C@@H]4CCc5cc(O)c(C(N)=O)cc5[C@H]4CC[C@@]32C)OC1=O ? 7.9

Now try CN1C(=O)C=C[C@]2(C)[C@H]3CC[C@]4(C)[C@@H](N(C(=O)NC5CCCCC5)C5CC5)CC[C@H]4[C@@H]3CC[C@@H]12 . 8.2

Another molecule to check: C[C@]12CC[C@@]3(C[C@H]1CC[C@@H]1[C@@H]2CC[C@]2(C)C(=O)CC[C@@H]12)CN(CC(CN1CCOCC1)OC(=O)CCC1CCCC1)C(=O)O3 (some centres not stated) 18.9

Others:
# inhibition lookup, item O=C(c1ccc(OCN2CCCCC2)cc1)c1c(-c2ccc(O)cc2)sc2cc(O)ccc12 0

Let us now turn to CN1C(=O)CC[C@]2(C)[C@H]3CC[C@]4(C)[C@@H](NC(=O)C(C)(C)C)CC[C@H]4[C@@H]3CC[C@@H]12 13.5

---

In this section, each of the compounds is paired with its reported inhibition.
- assayed_target: 3-keto-steroid reductase/17-beta-hydroxysteroid dehydrogenase 7 (Homo sapiens)
- cond: HEK293, at 3 µM
- Description: Inhibition of human 17beta-HSD7 expressed in HEK293 cells assessed as inhibition of reduction of [14C]estrone into [14C]estradiol at 3 uM after 7 hrs
Output spec: scalar in %, unitless text.

Consider the following illustrative entries.
// query inhibition value for entry CCCN(C=O)[C@H]1CC[C@H]2[C@@H]3CC[C@H]4N(C)C(=O)CC[C@]4(C)[C@H]3CC[C@]12C 56.3

Likewise for CCCNC(=O)N(C)[C@H]1CC[C@H]2[C@@H]3CC[C@H]4N(C)C(=O)CC[C@]4(C)[C@H]3CC[C@]12C ? 2.2

Can you handle CC1(C)C[C@@]2(CC[C@H]3[C@@H]4CCc5cc(O)ccc5[C@H]4CC[C@@]32C)OC1=O next? 42.4

Further cases:
Query (compound): CC(C)(C)NC(=O)[C@H]1CC[C@H]2[C@@H]3CC=C4C=C(Cl)CC[C@]4(C)[C@H]3CC[C@]12C ; field requested: inhibition 56.8

Repeat for the following compound: CCCC1CC[C@@]2(CC[C@H]3[C@@H]4CCc5cc(O)ccc5[C@H]4CC[C@@]32C)OC1=O (some centres not stated) 47.1

CN1C(=S)CC[C@]2(C)[C@H]3CC[C@@]4(C)[C@@H](CC[C@@]45CCCC(=O)O5)[C@@H]3CC[C@@H]12 ? 12.9

For C[C@]12CC[C@H]3[C@@H](CC=C4C[C@@H](O)CC[C@@]43C)[C@@H]1CC[C@@H]2O then? 29.7

What do you have for CCCN(CC1C2CC3CC(C2)CC1C3)C[C@@]1(O)CC[C@@]2(C)[C@@H](CC[C@@H]3[C@@H]2CC[C@]2(C)C(=O)CC[C@@H]32)C1 (some centres not stated) ? 18.8

Likewise for COc1cc2c(cc1S(N)(=O)=O)CC[C@@H]1[C@@H]2CC[C@]2(C)C(=O)CC[C@@H]12 ? 10.3

Same lookup for O=c1oc2cc(O)ccc2c2oc3cc(O)ccc3c12 , please. 2.3

And for CC(=O)S[C@@H]1CC2=CC(=O)CC[C@]2(C)[C@H]2CC[C@@]3(C)[C@@H](CC[C@@]34CCC(=O)O4)[C@H]12 ? 7.5

Another compound to look at: CCC1(CC)CC[C@@]2(CC[C@H]3[C@@H]4CCc5cc(O)ccc5[C@H]4CC[C@@]32C)OC1=O 39.6

Also CN1C(=O)CC[C@]2(C)[C@H]3CC[C@]4(C)[C@@H](NC(=O)C(C)(C)C)CC[C@H]4[C@@H]3CC[C@@H]12 , if possible. 55.9

And what about the compound COc1cc2c(cc1S(N)(=O)=O)CC[C@@H]1[C@@H]2CC[C@@]2(C)[C@H]1CCC2(O)Cc1ccc(C(C)(C)C)cc1 (some centres not stated) ? 6.4

Do the same for C[C@]12CC[C@H]3[C@@H](CCC4=CC(=O)CC[C@@]43C)[C@@H]1CC[C@@H]2C(=O)CO please 11.9

Now this one: C[C@]12CC[C@H](O)C[C@@H]1CC[C@@H]1[C@@H]2CC[C@]2(C)[C@@H](O)CC[C@@H]12 4.5

Thanks! And C[C@]12CC[C@@H]3c4ccc(O)cc4CC[C@H]3[C@@H]1CC[C@@]21CCC(=O)O1 ? 3.1

Another: C[C@]12CCc3c(ccc4cc(O)ccc34)[C@@H]1CCC2=O 14.2

Try the compound COc1ccc(N(C(=O)C(C)C)[C@H]2CC[C@H]3[C@@H]4CC[C@H]5N(C)C(=O)CC[C@]5(C)[C@H]4CC[C@]23C)cc1 99.8

Also check CC1CC[C@@]2(CC[C@H]3[C@@H]4CCc5cc(O)ccc5[C@H]4CC[C@@]32C)OC1=O (some centres not stated) 32.1

// next record CC(=O)[C@H]1CC[C@H]2[C@@H]3CC=C4C[C@@H](O)CC[C@]4(C)[C@H]3CC[C@]12C 13.2

Now consider C[C@]12CC[C@@H]3c4ccc(O)cc4CC[C@H]3[C@@H]1C[C@@H](O)[C@@H]2O . 29.5

Also need CN1C(=O)CC[C@]2(C)[C@H]3CC[C@]4(C)[C@@H](N(C(=O)NC5CCCCC5)C5CC5)CC[C@H]4[C@@H]3CC[C@@H]12 , thanks. 54.7
